Just for reference, patent US9434711B2 is where these values come from.

# reported IC50; entries follow
target_under_test: canine TRPM8 (Canis lupus familiaris, UniProt Q1A7N1)
Sequence (Q1A7N1 1-1104): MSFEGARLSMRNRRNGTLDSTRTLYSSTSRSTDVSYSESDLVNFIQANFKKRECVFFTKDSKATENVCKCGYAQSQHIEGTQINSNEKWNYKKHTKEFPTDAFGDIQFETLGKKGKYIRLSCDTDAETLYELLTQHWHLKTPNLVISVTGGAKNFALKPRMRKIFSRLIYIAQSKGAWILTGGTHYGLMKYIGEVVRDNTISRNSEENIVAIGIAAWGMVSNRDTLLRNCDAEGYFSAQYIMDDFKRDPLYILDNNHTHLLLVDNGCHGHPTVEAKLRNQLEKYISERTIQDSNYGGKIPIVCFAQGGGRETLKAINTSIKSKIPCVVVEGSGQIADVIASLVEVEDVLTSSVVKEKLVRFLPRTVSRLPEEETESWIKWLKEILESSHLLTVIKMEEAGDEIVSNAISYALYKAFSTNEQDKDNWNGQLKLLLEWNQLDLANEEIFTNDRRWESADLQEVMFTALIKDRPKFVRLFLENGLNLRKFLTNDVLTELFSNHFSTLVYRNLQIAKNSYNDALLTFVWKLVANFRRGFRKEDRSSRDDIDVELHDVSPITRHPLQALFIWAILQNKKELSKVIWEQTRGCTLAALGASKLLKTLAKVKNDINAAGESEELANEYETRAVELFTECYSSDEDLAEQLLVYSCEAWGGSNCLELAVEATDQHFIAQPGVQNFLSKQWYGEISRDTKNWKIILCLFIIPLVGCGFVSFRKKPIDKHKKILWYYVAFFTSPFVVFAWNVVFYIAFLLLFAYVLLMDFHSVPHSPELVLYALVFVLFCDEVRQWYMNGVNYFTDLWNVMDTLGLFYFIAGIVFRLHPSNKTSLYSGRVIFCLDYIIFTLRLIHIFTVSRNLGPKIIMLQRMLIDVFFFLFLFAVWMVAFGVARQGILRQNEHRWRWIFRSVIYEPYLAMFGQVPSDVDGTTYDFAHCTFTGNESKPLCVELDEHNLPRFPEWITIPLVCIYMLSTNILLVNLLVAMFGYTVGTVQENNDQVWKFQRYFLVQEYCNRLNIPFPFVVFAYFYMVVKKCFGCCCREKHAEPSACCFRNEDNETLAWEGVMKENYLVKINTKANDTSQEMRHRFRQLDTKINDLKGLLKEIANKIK
run_description: In Vitro Canine TRPM8 Functional Assay (Ca2+ fluorescence, icilin activation)
Type: cell-based
condition_set: HEK293 cells stably expressing canine TRPM8; icilin activation; eight-point dose-response; read-out: IC50
Answer with a number only, understood to be in nM.

Sample answers from the record:
Cc1c(N(CCCC(F)(F)F)S(=O)(=O)CC(F)(F)F)sc2ccccc12    74.9
Cc1c(N(CCN2CCCCC2)S(=O)(=O)c2ccccc2)sc2ccccc12    4
COC(=O)c1ccc(S(=O)(=O)N(Cc2ccc(F)c(C(F)(F)F)c2)c2sc3ccccc3c2C=O)cc1    30
O=S(=O)(c1ccccc1)N(Cc1ccc(F)c(F)c1)c1sc2ccccc2c1Cl    8.8
CCCCN(c1sc2ccccc2c1C(C)=O)S(=O)(=O)c1ccc(C(=O)O)cc1    13
O=C(O)c1cccc(S(=O)(=O)N(Cc2ccc(F)c(C(F)(F)F)c2)c2cc3ccccc3s2)c1    33

Exercise: Missing value: IC50, canine TRPM8 (Canis lupus familiaris, UniProt Q1A7N1), entry Cc1c(N(CC(F)F)S(=O)(=O)c2ccccc2)sc2ccccc12 . Fill in?
Key: 40.2

Exercise: Missing value: IC50, canine TRPM8 (Canis lupus familiaris, UniProt Q1A7N1), entry O=S(=O)(Nc1ccc(S(=O)(=O)N(CCC2CC2)c2sc3ccccc3c2Cl)cc1)C1CC1 . Fill in?
Key: 39
